target: His-tagged protein corresponding to amino acids 575-869 of human Tyk2 (Homo sapiens); assay: Probe displacement assay (scintillation proximity, radiolabeled probe); details: 2.5 nM Tyk2 (575-869), 40 nM [3H] probe, 30 minutes at room temperature
pEC50: −log10 of the molar value.
Measure Name: pEC50

Known results for compounds:
CNc1cc(Nc2cccn(C3CCN(C(=O)c4ncc[nH]4)CC3)c2=O)nn2c(C(=O)NC3CC3)cnc12: 8.15
CNc1cc(Nc2cccn(-c3cccc(C(C)O)n3)c2=O)nn2c(C(=O)NC3CCC3)cnc12 (centres unmarked): 8.22
CNc1cc(Nc2cccn(-c3cccc(F)n3)c2=O)nn2c(C(=O)N[C@@H]3C[C@@H]3F)cnc12: 8.30
CNc1cc(Nc2cc(F)cn(-c3ccc(C)nn3)c2=O)nn2c(C(=O)NC3CCC3)cnc12: 7.92
CNc1cc(Nc2cccn(-c3ccc(S(C)(=O)=O)cc3)c2=O)nn2c(C(=O)NC3CC3)cnc12: 8.10

a: CNc1cc(Nc2cccn(-c3ccccn3)c2=O)nn2c(C(=O)NC3CC3)cnc12
b: CNc1cc(Nc2cccn(C3(C)CC3)c2=O)nn2c(C(=O)NCC(C)(C)CO)cnc12
Hi there! Just curious which has the higher pEC50 between a and b . // output: label of the selected item b
(b: 8.10, a: 7.57)

###

tested on: IL-23-stimulated Kit225 T cells with STAT-dependent luciferase reporter; assay: Kit225 T cell assay, STAT-dependent luciferase reporter, IL-23 stimulated; assay type: cell-based, human; details: Homo sapiens, KIT225, 20 ng/mL human recombinant IL-23, 5-6 hours, read-out: IL-23 Kit225 Reporter, LE (IC50)
pIC50: −log10 of the molar value.
Measure Name: pIC50

Use the examples below as a reference point.
CNc1cc(Nc2cccn(-c3ccc(C(=O)N(C)C)cn3)c2=O)nn2c(C(=O)N[C@@H]3C[C@@H]3F)cnc12 [Example 257]: 6.74
CNc1cc(Nc2cccn(-c3ccc(N4CCOCC4)cc3)c2=O)nn2c(C(=O)NC3(C#N)CC3)cnc12 [Example 140]: 6.72
CNc1cc(Nc2cccn(C3(C)CC3)c2=O)nn2c(C(=O)NCC(C)(C)CO)cnc12 [Example 163]: 6.62
O=C(N[C@H]1C[C@@H]1F)c1cnc2c3c(c(Nc4cccn(-c5ccccn5)c4=O)nn12)OCCN3 [Example 241]: 6.85

A: CNc1cc(Nc2cccn(-c3ccc(CO)cn3)c2=O)nn2c(C(=O)NC3CC3)cnc12 [compound 253]
B: CNc1cc(Nc2cccn(-c3ccc(C(=O)N(C)C)cc3)c2=O)nn2c(C(=O)NCC(C)(C)CO)cnc12 [compound 267]
Could you point out whether the larger pIC50 belongs to A or to B ? Kindly state the label of the option you pick. A

###

system: IFNα-stimulated Kit225 T cells with STAT-dependent luciferase reporter; assay: Kit225 T cell assay, STAT-dependent luciferase reporter, IFNα stimulated; format: cell-based, human; conditions: Homo sapiens, KIT225, 200 U/mL human recombinant IFNα, 5-6 hours, read-out: IFNa Kit225 Reporter, LE (IC50)
Measure Name: IC50 (nM)

a: CCN(C)C(=O)c1ccc(-n2cccc(Nc3cc(NC)c4ncc(C(=O)N[C@@H]5C[C@@H]5F)n4n3)c2=O)nc1
b: CNc1cc(Nc2cccn(-c3ccc(N4CCOCC4)cc3)c2=O)nn2c(C(=O)NC3(C#N)CC3)cnc12
Rank a against b by their IC50 values and give the higher one. # reply format: chosen label b

a: CNc1cc(Nc2cccn(-c3ccc(C#N)cc3)c2=O)nn2c(C(=O)NC3CC3)cnc12
b: CNc1cc(Nc2cccn(-c3ccccn3)c2=O)nn2c(C(=O)NCc3nccs3)cnc12
// compare measured IC50 between a and b ; output the lower one Use the label to indicate which entry you chose. a

###

system: IFNα-stimulated Kit225 T cells with STAT-dependent luciferase reporter; assay: Kit225 T cell assay, STAT-dependent luciferase reporter, IFNα stimulated; type: cell-based, human; settings: 200 U/mL human recombinant IFNα, 5-6 hours, read-out: IFNa Kit225 Reporter, LE (IC50)
pIC50: −log10 of the molar value.
Measure Name: pIC50

Example molecules with recorded pIC50:
CNc1cc(Nc2cccn(-c3ccc(C(F)F)cc3)c2=O)nn2c(C(=O)NC3CC3)cnc12: 6.82
CNc1cc(Nc2cccn(-c3ncccn3)c2=O)nn2c(C(=O)N[C@@H]3C[C@@H]3F)cnc12: 6.64

P: CNc1cc(Nc2cc(F)cn(C)c2=O)nn2c(C(=O)NC3(C#N)CC3)cnc12
Q: CNc1cc(Nc2cccn(C)c2=O)nn2c(C(=O)NC(C)C#N)cnc12 (centres unmarked)
Of P and Q , which carries the smaller reported pIC50 figure? Answer by quoting the chosen item's label. P

P: CNc1cc(Nc2cccn(C3CCOC3)c2=O)nn2c(C(=O)NC3CCCC3)cnc12 (centres unmarked)
Q: CNc1cc(Nc2cccn(-c3ncc(F)cn3)c2=O)nn2c(C(=O)NC3CCC3)cnc12
R: CNc1cc(Nc2cc(F)cn(-c3ccccn3)c2=O)nn2c(C(=O)NC3CCC3)cnc12
Reorder the items by pIC50, least to greatest. Show the ranking through the labels, in the order asked for. P, Q, R

###

system: IFNα-stimulated Kit225 T cells with STAT-dependent luciferase reporter; test: Kit225 T cell assay, STAT-dependent luciferase reporter, IFNα stimulated; type: cell-based, human; conditions: Homo sapiens, KIT225, 200 U/mL human recombinant IFNα, 5-6 hours, read-out: IFNa Kit225 Reporter, LE (IC50)
pIC50: −log10 of the molar value.
Measure Name: pIC50

Some molecules with recorded pIC50:
CNc1cc(Nc2cccn(-c3ccc(C(=O)N4CCC4)cn3)c2=O)nn2c(C(=O)N[C@@H]3C[C@@H]3F)cnc12: 7.40
CNc1cc(Nc2cccn(-c3cccc(C#N)c3)c2=O)nn2c(C(=O)NC3CC3)cnc12: 6.72
CNc1cc(Nc2cccn(-c3cnc(C(C)(C)O)cn3)c2=O)nn2c(C(=O)N[C@@H]3C[C@@H]3F)cnc12: 7.55
CNc1cc(Nc2cccn(C)c2=O)nn2c(C(=O)NC(C)(C)C)cnc12: 6.31

1: CCC(CC)CNC(=O)c1cnc2c(NC)cc(Nc3cccn(-c4ccccc4)c3=O)nn12
2: CNc1cc(Nc2cccn(C3CCN(C(=O)C4(C(F)(F)F)CC4)CC3)c2=O)nn2c(C(=O)NC3CC3)cnc12
Of 1 and 2 , whose reported pIC50 is numerically smaller? The response must carry the label of the picked entry. 1
(1: 6.42, 2: 6.66)

###

target: His-tagged protein corresponding to amino acids 575-869 of human Tyk2 (Homo sapiens, UniProt P29597); assay: Probe displacement assay (scintillation proximity, radiolabeled probe); conditions: 2.5 nM Tyk2 (575-869), 40 nM [3H] probe, 30 minutes at room temperature
Sequence (P29597 with tags, fused parts or gaps): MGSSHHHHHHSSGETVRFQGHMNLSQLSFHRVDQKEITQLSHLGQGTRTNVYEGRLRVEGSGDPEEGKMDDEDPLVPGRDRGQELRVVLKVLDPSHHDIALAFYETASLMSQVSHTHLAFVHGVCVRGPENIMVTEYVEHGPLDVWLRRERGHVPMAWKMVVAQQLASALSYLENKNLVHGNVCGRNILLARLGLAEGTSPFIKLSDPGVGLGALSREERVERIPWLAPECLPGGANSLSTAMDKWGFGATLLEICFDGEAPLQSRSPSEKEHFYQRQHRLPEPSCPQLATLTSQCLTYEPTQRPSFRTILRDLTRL
pEC50: −log10 of the molar value.
Measure Name: pEC50

Consider the reported pEC50 for these compounds:
CNc1cc(Nc2cccn(C)c2=O)nn2c(C(=O)NCC3CCC3)cnc12 [Example 214]: 7.14
CNc1cc(Nc2cccn(-c3ncc(C)cn3)c2=O)nn2c(C(=O)N[C@@H]3C[C@@H]3F)cnc12 [Example 83]: 8.70
CNc1cc(Nc2ccnn(-c3ccccc3)c2=O)nn2c(C(=O)N[C@@H]3C[C@@H]3F)cnc12 [Example 180]: 7.77

a: CNc1cc(Nc2cccn(C)c2=O)nn2c(C(=O)NC(C)(C)C)cnc12 [Example 211]
b: CNc1cc(Nc2cccn(-c3ccc(C(F)(F)F)cc3)c2=O)nn2c(C(=O)NCC(C)(CO)CO)cnc12 [Example 132]
Kindly identify which of a and b has the larger recorded pEC50 value. Refer to your chosen item by its label in the answer. b
(b: 7.85, a: 7.24)

###

system: IL-23-stimulated Kit225 T cells with STAT-dependent luciferase reporter; test: Kit225 T cell assay, STAT-dependent luciferase reporter, IL-23 stimulated; type: cell-based, human; conditions: Homo sapiens, KIT225, 20 ng/mL human recombinant IL-23, 5-6 hours, read-out: IL-23 Kit225 Reporter, LE (IC50)
Measure Name: IC50 (µM)

CNc1cc(Nc2cccn(-c3ccc(C(=O)N(C)C)cc3)c2=O)nn2c(C(=O)N[C@@H]3C[C@@H]3F)cnc12 [compound 266]: 0.12

I: CNc1cc(Nc2cccn(-c3ccc(C#N)cc3)c2=O)nn2c(C(=O)NC3CC3)cnc12 [Example 2]
II: CNc1cc(Nc2cccn(-c3cncc(C#N)n3)c2=O)nn2c(C(=O)NCC(C)(C)CO)cnc12 [compound 258]
III: CNc1cc(Nc2cccn(C3CCN(C(C)=O)CC3)c2=O)nn2c(C(=O)NC3C[C@@H]3F)cnc12 (stereo partly shown) [Example 251]
Sort the compounds on IC50; start with the lowest figure. Order the labels as requested and give them as your answer. I, III, II
(I: 0.16 µM, III: 0.35 µM, II: 1.22 µM)

Values were extracted from patent US10273237B2.
